target: GPIIb/IIIa (Homo sapiens, UniProt P05106+P08514); test: In vitro solid phase purified glycoprotein IIb/IIIa binding assay (fibrinogen binding)
Sequence (P08514 32-887 limits assumed): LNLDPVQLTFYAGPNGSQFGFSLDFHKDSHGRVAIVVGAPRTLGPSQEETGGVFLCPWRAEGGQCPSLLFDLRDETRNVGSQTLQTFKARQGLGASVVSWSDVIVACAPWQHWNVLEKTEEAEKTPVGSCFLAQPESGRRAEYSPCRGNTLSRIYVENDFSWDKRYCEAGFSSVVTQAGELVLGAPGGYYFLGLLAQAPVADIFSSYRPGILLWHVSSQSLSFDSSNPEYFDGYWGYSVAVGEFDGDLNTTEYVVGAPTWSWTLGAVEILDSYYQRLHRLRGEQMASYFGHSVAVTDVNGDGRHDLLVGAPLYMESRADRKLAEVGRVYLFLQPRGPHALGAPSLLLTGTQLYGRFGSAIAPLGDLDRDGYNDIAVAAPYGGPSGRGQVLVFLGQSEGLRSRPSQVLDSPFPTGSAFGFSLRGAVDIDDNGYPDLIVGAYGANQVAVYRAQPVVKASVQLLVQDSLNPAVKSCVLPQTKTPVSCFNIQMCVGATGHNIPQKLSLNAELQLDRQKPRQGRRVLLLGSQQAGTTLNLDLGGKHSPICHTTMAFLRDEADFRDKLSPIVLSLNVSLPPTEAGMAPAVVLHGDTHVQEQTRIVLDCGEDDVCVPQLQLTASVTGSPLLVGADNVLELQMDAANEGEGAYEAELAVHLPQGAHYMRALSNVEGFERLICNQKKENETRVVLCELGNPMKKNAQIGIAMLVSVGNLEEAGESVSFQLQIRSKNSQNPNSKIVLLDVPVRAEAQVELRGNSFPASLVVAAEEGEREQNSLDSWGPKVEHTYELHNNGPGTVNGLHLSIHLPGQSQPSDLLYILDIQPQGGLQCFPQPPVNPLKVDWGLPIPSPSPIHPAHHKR
Sequence (P08514 891-1039 limits assumed): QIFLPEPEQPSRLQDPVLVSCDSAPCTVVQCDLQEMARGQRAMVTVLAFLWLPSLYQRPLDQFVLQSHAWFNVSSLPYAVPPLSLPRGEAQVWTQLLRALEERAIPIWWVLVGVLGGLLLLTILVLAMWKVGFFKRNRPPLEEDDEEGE
Sequence (P05106 27-788): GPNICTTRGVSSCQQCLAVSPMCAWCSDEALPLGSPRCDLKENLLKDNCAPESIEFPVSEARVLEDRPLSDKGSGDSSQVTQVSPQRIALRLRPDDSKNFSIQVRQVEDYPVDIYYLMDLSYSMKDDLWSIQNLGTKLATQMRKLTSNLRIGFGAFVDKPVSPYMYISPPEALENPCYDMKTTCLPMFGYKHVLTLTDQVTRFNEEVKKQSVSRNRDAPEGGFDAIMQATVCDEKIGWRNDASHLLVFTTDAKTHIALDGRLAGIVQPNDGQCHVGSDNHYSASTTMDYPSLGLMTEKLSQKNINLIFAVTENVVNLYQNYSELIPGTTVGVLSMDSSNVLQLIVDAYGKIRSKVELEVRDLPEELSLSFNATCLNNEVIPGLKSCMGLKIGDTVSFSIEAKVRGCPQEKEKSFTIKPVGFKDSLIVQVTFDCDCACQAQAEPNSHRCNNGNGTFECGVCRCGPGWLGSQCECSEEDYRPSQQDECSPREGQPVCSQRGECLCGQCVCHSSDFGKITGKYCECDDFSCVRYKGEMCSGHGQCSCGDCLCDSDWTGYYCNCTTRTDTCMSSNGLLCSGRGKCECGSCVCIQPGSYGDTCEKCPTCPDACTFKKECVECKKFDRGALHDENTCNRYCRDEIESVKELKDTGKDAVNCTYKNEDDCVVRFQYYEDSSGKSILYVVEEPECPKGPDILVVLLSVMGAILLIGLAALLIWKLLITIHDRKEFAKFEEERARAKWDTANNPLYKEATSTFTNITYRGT
QUANTITY_NAME: IC50 (nM)
Field: numeric (nM). Do not append units.

Worked cases, IC50 given:
CCN(CC)C(=O)COC(=O)C[C@H](NC(=O)[C@@H]1CCCN(C(=O)CCC2CCNCC2)C1)c1ccc2c(c1)OCO2    5
O=C(N[C@@H](CNC(=O)[C@@H]1CCCN(C(=O)/C=C/C2CCNCC2)C1)C(=O)OCC(=O)N1CCCCC1)OCc1ccccc1    2.5
CCN(CC)C(=O)COC(=O)[C@H](CNC(=O)[C@@H]1CCCN(C(=O)/C=C/C2CCNCC2)C1)NC(=O)OCc1ccccc1    9.7

Using the record for "CCN(CC)C(=O)COC(=O)C[C@H](NC(=O)[C@@H]1CCCN(C(=O)CCC2CCNCC2)C1)c1cccnc1" , report its IC50. 0.7

Could you tell me which IC50 is on file for "CCN(CC)C(=O)COC(=O)[C@H](CNC(=O)[C@@H]1CCCN(C(=O)CCC2CCNCC2)C1)NC(=O)OCc1ccccc1" ? 2

// returns reported IC50 for input "CCN(CC)C(=O)COC(=O)C[C@H](NC(=O)[C@@H]1CCCN(C(=O)CCC2CCNCC2)C1)c1cncc(Br)c1" 0.9
